Target: gI WT: HSV2 gI wildtype ectodomain (HSV2, UniProt P06764 21-256)
Test: ELISA, supernatant
assayMetric: binding result

# binder, assayMetric, result
rows = [
    ("mAb clone 17 (antibody, V domains shown) VH: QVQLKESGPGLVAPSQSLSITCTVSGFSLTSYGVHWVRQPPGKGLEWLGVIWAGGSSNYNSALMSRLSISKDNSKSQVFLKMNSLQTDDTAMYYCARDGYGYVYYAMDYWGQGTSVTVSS VL: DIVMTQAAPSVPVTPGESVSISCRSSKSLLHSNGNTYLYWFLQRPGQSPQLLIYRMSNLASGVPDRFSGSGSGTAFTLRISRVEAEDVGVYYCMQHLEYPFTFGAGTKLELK", "binding result", "no binding"),
    ("mAb clone 35, 36 (antibody, V domains shown) VH: QVQLKESGPGLVAPSQSLSITCTVSGFSLTSYGVHWVRQPPGKGLEWLGVIWAGGSTNYNSALMSRLSISKDNSKSQVFLKMNSLQTDDTAMYYCATDGYKFFYYAMDYWGQGTSVTVSS VL: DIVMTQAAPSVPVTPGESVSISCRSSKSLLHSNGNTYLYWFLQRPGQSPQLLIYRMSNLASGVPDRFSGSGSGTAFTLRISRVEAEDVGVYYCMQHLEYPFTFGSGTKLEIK", "binding result", "binds"),
    ("mAb clone 20 (antibody, V domains shown) VH: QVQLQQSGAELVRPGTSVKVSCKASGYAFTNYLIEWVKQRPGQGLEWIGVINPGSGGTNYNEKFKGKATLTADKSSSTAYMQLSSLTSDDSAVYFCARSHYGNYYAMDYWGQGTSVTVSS VL: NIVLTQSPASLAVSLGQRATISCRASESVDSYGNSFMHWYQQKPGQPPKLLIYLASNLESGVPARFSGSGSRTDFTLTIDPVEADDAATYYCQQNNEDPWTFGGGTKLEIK", "binding result", "no binding"),
    ("mAb clone 3, 21 (antibody, V domains shown) VH: EVQLQQSGPELVKPGASVKISCKTSGYTFTEYTMHWVKQSHGKSLEWIGGINPNNGGTSYNQKFKGKATLTVDKSSSTAYMELRSLTSEDSAVYYCARSLVEGDFAYWGQGTLVTVSA VL: DIVLTQSPASLAVSLGQRATISCRASQSVSTSSYSYMHWYQQKPGQPPKLLIKYASNLESGVPARFSGSGSGTDFTLNIHPVEEEDTATYYCQHSWEIPYTFGGGTKLEIK", "binding result", "no binding"),
    ("mAb clone 24 (antibody, V domains shown) VH: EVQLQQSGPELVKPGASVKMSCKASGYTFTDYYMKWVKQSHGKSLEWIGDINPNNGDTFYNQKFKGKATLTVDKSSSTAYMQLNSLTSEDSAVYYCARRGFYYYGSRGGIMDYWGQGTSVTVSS VL: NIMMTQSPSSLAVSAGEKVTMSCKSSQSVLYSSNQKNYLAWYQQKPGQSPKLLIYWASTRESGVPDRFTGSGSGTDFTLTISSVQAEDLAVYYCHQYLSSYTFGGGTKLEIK", "binding result", "no binding"),
    ("mAb clone 19 (antibody, V domains shown) VH: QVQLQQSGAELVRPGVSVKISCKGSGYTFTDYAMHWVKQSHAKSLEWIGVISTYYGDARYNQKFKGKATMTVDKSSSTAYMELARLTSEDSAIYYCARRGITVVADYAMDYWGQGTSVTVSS VL: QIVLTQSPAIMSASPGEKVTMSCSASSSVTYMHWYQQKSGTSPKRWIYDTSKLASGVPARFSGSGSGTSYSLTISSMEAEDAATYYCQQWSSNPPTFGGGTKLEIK", "binding result", "no binding"),
    ("mAb clone 5 (antibody, V domains shown, also called mAb 5; GEGI/5IIa) VH: EVKLVESGGGLVQPGGSLRLSCATSGFTFSDFYMEWVRQPPGKRLEWIAASRNKANDYTTEYSASVKGRFIVSRDTSQSILYLQMNALRAEDTAIYYCARDFLPYYGSPWFAYWGQGTLVTVSA VL: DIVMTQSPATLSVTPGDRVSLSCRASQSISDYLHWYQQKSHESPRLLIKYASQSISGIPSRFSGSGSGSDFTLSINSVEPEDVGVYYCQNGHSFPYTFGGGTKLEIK", "binding result", "no binding"),
    ("mAb clone 15 (antibody, V domains shown) VH: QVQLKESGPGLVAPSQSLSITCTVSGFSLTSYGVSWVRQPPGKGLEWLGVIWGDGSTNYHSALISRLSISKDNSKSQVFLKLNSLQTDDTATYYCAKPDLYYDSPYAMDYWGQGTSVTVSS VL: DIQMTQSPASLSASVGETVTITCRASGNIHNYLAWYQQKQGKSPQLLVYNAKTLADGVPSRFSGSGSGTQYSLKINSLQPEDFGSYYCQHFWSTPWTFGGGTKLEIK", "binding result", "no binding"),
    ("mAb clone 44 (antibody, V domains shown) VH: EVQLQQSGPELEKPGASVKISCKASGYSFTGYNMNWVKQSNGKSLEWIGNIDPYYGGIRYNQKFKGKATLTVDKSSSTAYMQLKSLTSEDSAVYYCAREDRYLVHYYAMDYWGQGTSVTVSS VL: QIVLTQSPAIMSASPGEKVTMTCSASSSISYMHWYQQKPGTSPKRWIYDTSKLASGVPARFSGSGSGTSYSLTISSMEAEDAATYYCHQRSSYPYTFGGGTKLEIK", "binding result", "binds"),
    ("mAb clone 48 (antibody, V domains shown) VH: QVTLKESGPGILQPSQTLSLTCSFSGFSLSTSGMGVSWIRQPSGKGLEWLAHIYWDDDKRYNPSLKSRLTISKDTSSNQVFLKITSVDTADTATYYCARRGFYYRYDGGRRYYYAMDYWGQGTSVTVSS VL: DILLTQSPAILSVSPGERVSFSCRASQSIGTSIHWYQQGTNGSPRLLIKFASESISGIPSRFSGSGSGTDFTLSINSVESEDIADYYCQQSNSWPLTFGAGTKLELK", "binding result", "no binding"),
]
